System: HCT-15 colon
assay: NCI-60 one-dose screen, 48 h
condition description: 10 µM unless noted
The panel holds about 83,000 compounds, 20% with a hit somewhere; the sample as a whole holds those more often. Active and inactive are the calls of the source. How the source made its calls: active means growth percent below 10; inactive means the rest.
The categories you may choose from are TRUE for active, FALSE for inactive

Previously resolved entries follow.
CC(=O)n1cc(-c2c[nH]c3ccccc23)c(-c2ccc(Cl)cc2)n1 :: FALSE
COc1nccc2cc3c(=O)n4c(cc5ccccc54)c(=O)n3c12 :: FALSE

*Q* Write down the call the test reported for this molecule. Item: COc1ccc(C(O)(CCC(C)C)C(CN2CCOCC2)c2ccc(Cl)cc2)cc1 (centres undefined)
*A* FALSE

*Q* Write down the call the test reported for this molecule. Item: O=C(CN1C=NC2C(N3CCOCC3)=NC=NC21)c1ccc(Br)cc1 (centres undefined)
*A* FALSE

*Q* Write down the call the test reported for this molecule. Item: C#CCn1cc(C=C2C(=O)N(C)C(=O)N(C)C2=O)c2cc(Cl)ccc21
*A* FALSE

*Q* Write down the call the test reported for this molecule. Item: O=C(Nc1ccc(Cl)cc1F)c1cc(F)ccc1O
*A* TRUE

*Q* Write down the call the test reported for this molecule. Item: COc1cc(/C=C/C(=O)N2c3ccccc3CC2C)c(OC)c2c1OCO2 (centres undefined)
*A* FALSE

###

Test system: MDA-MB-231 breast
assay: NCI-60 one-dose screen, 48 h
condition description: 10 µM unless noted
The panel holds about 83,000 compounds, 20% with a hit somewhere; the sample as a whole holds those more often. Calls of active or inactive are those of the source. The calls were made as follows: active = growth percent below 10; inactive = the rest.
The categories you may choose from are yes (1) = active, no (0) = inactive

Previously resolved entries follow.
Cc1c(-c2csc(-n3nc(C(F)(F)F)cc3C(F)(F)F)n2)no[n+]1[O-] :: no (0)
O=C(Cc1ccccc1)NC(c1ccc(Cl)cc1)c1c(O)ccc2ccccc12 (centres undefined) :: yes (1)
COC(=O)C1(C)CCC[C@]2(C)[C@H]3C[C@H]4C(C(C)C)=C[C@]3(CC[C@@H]12)[C@H]1[C@@H]4[C@@H](OCC#CCN2CCOCC2)CC[C@@H]1OCC#CCN1CCOCC1 (some centres undefined) :: no (0)

*Q* Write down the call the test reported for this compound. Item: CC1=C(C(=O)OCC2CCN(C(=O)OC(C)(C)C)CC2)[C@H](c2cccc(C#N)c2)C2=C(CC(C)(C)CC2=O)N1
*A* no (0)

###

Recorded growth by entry
Tested on: SNB-19 CNS
assay: NCI-60 one-dose screen, 48 h (100 = growth as untreated, 0 = no growth, -100 = all killed)
condition description: 10 µM unless noted
The panel holds about 83,000 compounds, 20% with a hit somewhere; the sample as a whole holds those more often.
Your answer should be a plain number; it is taken to be in %.

Answered examples (2):
CCOC(=O)c1sc(-c2ccc(OS(=O)(=O)c3ccccc3[N+](=O)[O-])c(C=O)c2)nc1C :: 76.1
O=c1oc2ccc(Cl)cc2c(=O)n1-c1ccc(I)cc1F :: 18.6

*Q* GET growth where system = SNB-19 CNS and item = O=C(Nc1ccsc1C(=O)NC1CCCCC1)c1ccc(F)cc1
*A* 98.8

*Q* GET growth where system = SNB-19 CNS and item = CCOC(=O)c1ccc(N=Cc2sc(=O)[nH]c2O)cc1
*A* 91.9

*Q* GET growth where system = SNB-19 CNS and item = CCCCCCCCCCCCCCn1cc(C2=C(c3coc4ccc(OC)cc34)C(=O)NC2=O)c2ccccc21
*A* 101

*Q* GET growth where system = SNB-19 CNS and item = O=C(c1nc2ccccc2[nH]1)C1C(c2cccc([N+](=O)[O-])c2)C2CC3CCCCC3N2[C@@]12C(=O)Nc1cc(Cl)ccc12 (stereo not given in full)
*A* 39.1

*Q* GET growth where system = SNB-19 CNS and item = CCN(CC)CCCNc1ccnc2cc3ccccc3cc12
*A* 71.3

*Q* GET growth where system = SNB-19 CNS and item = CCCCCCC(O)(c1ccc(F)cc1)C(CN1CCOCC1)c1ccccc1 (stereo not given)
*A* 42

*Q* GET growth where system = SNB-19 CNS and item = COc1cccc2c1C=C1CCCCC3=Cc4c(OC)cccc4OC13O2
*A* 51.3

*Q* GET growth where system = SNB-19 CNS and item = COc1ccccc1CNC(=O)C1c2ccccc2C(=O)N(CC(C)C)C1c1cccs1 (stereo not given)
*A* 90.6

###

Tested on: HT29 colon
assay: NCI-60 one-dose screen, 48 h
condition description: 10 µM unless noted
Compounds without any hit were thinned out: in the full panel of roughly 83,000, 20% have a hit. Active and inactive are the calls of the source. How the source made its calls: active means growth percent below 10; inactive means the rest.
The categories you may choose from are 1 = active, 0 = inactive

CNC(=O)c1cc(Oc2ccc(CC(=O)Nc3cc(C(C)(C)C)cn3C)cc2)ccn1 :: 0

*Q* Write down the call the test reported for this compound. Item: Cc1cc2c(c(C)c1Cl)C(=O)/C(=C/c1ccco1)O2
*A* 0

*Q* Write down the call the test reported for this compound. Item: Cc1ccc(CN2CCC(C(=O)Nc3ccc(-c4cc5ccccc5[nH]4)cc3)CC2)o1
*A* 0

*Q* Write down the call the test reported for this compound. Item: CC(C)Cn1c2c(c(=S)[nH]c1=O)CCC2
*A* 0

*Q* Write down the call the test reported for this compound. Item: CCOc1c(Br)cc(C2C(C(=O)OC)=CN(C)C=C2C(=O)OC)cc1OC
*A* 1

###

Recorded growth by entry
Test system: UO-31 renal
assay: NCI-60 one-dose screen, 48 h (100 = growth as untreated, 0 = no growth, -100 = all killed)
condition description: 10 µM unless noted
This is part of a sample that, as a whole, favours compounds with a hit. Of some 83,000 tested, about 20% had one in any assay. The source made the active and inactive calls. Rule for the calls: active = growth percent below 10; inactive = the rest.

Answered examples (6):
Cn1c(/C=C(\C#N)c2cccc(C(F)(F)F)c2)nc2c(N3CCOCC3)nc(Cl)nc21 :: -100% (active)
CCOC(=O)C(CC(=O)O)=C(C(=O)OCC)C(=O)OCC :: 98.8% (inactive)
COc1ccc(-n2c(C(O)c3ccccc3)nn(CN3CCOCC3)c2=S)cc1 (stereo not given) :: 77.5% (inactive)
CN(C)CCNc1cc(-c2ccccc2)nc2ccccc12 :: -94.2% (active)
COC(=O)c1c2c(c(C)[n+]([O-])c1C)C(=O)C=C(NCc1ccccc1)C2=O :: -13.6% (active)
COc1c(B(O)O)cccc1-c1nc2ccc3n[nH]c(F)c3c2c2c1CCCC2 :: 41.5% (inactive)

*Q* GET growth where system = UO-31 renal and item = Cc1nc2ccccc2c(/C=C/c2ccccc2)c1C(=O)/C=C/c1ccc(Cl)cc1
*A* 11.1% (inactive)

*Q* GET growth where system = UO-31 renal and item = O=NN(C(=O)NC1CCC(C(=O)O)CC1)C1CCC(C(=O)O)CC1 (stereo not given)
*A* 92.8% (inactive)

*Q* GET growth where system = UO-31 renal and item = CCC1=C[C@@H]2CN(C1)Cc1c([nH]c3ccccc13)[C@@](C(=O)OC)(c1cc3c(cc1OC)N(C)[C@H]1[C@@](O)(C(=O)OC)[C@H](OC(C)=O)[C@]4(CC)[C@@H]5C[C@@H]5CN5CC[C@]31[C@@H]54)C2
*A* 3.11% (active)

*Q* GET growth where system = UO-31 renal and item = COc1ccc(C2C3=C(COC3=O)N(CCO)c3cc4c(cc32)CCC4)cc1OC (stereo not given)
*A* 42% (inactive)

*Q* GET growth where system = UO-31 renal and item = O=C(c1ccccc1)N(C(=S)NCCc1ccc(Cl)cc1)c1ccc(Cl)cc1
*A* 59.1% (inactive)

###

Test system: MDA-MB-231 breast
assay: NCI-60 one-dose screen, 48 h (100 = growth as untreated, 0 = no growth, -100 = all killed)
condition description: 10 µM unless noted
About 83,000 compounds went through this panel and 20% of them were active in at least one assay; those are over-represented in the sample as a whole. The source made the active and inactive calls. The calls were made as follows: active = growth percent below 10; inactive = the rest.
readout type: growth

Answered examples (5):
CCOC(=O)C1=CN(C)C=C(C(=O)OCC)C1c1cc(Br)c(OCC)c(OC)c1 :: 36.8% (inactive)
CCC(C)(C)C(=O)O[C@H]1C[C@@H](C)C=C2C=C[C@H](C)[C@H](CC[C@@H]3CC=CC(=O)O3)[C@H]21 :: 96.9% (inactive)
COc1ccc(C)c2sc(N(Cc3cccnc3)C(=O)c3ccc(C#N)cc3)nc12 :: -4% (active)
CCCCN1CCN(c2ccc3nc(-c4ccc5nc(-c6ccc(OC)c(OC)c6)[nH]c5c4)[nH]c3c2)CC1 :: -38.1% (active)
CCN1CCN(c2cc(C)c3cc(NC(=O)c4ccc(OC)c(OC)c4)ccc3n2)CC1 :: 47.9% (inactive)

*Q* Note growth for the compound shown: Cc1c(-c2noc(-c3ccc([N+](=O)[O-])cc3)n2)no[n+]1[O-]
*A* 95.4% (inactive)
